B1: Caulobacter ParB omega fusion; a variant is named by its letters at X, in order, B8GW30 (parent)
chain: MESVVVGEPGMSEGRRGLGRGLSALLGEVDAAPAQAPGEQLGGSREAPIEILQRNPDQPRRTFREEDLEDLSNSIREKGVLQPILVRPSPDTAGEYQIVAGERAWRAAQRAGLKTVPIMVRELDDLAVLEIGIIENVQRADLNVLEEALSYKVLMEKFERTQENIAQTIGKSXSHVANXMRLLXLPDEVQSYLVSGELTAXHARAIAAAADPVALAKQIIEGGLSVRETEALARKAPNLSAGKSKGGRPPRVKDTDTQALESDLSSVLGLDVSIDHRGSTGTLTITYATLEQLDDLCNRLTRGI

Variants of: B1
method-notes: one-hybrid fitness for binding parS DNA (scaled: cognate 1, non-cognate 0); higher = stronger binding
assay-setup: with parS DNA site
In all, about 81,000 sequences were measured (“one-hybrid fitness for binding parS DNA”: median about -0.17, highest 2% from about 0.51 on). The full list was thinned out, with the highest values kept by preference.
Label rule, in plain words: one-hybrid fitness for binding parS DNA of 0.5 and up is met, under 0.5 is not met.

   variant_description  qualitative_label
0                 RQQC                met
1                 RVKT                met
2                 QCPW            not met
3                 RQQQ            not met
4                 CEDV            not met

Tell me whether one-hybrid fitness for binding parS DNA is at least 0.5 here: `RQGM`
not met

Tell me whether one-hybrid fitness for binding parS DNA is at least 0.5 here: `RQSC`
met

Tell me whether one-hybrid fitness for binding parS DNA is at least 0.5 here: `RQSY`
not met

Tell me whether one-hybrid fitness for binding parS DNA is at least 0.5 here: `RQGK`
not met

Tell me whether one-hybrid fitness for binding parS DNA is at least 0.5 here: `RNGM`
not met

Tell me whether one-hybrid fitness for binding parS DNA is at least 0.5 here: `MEIG`
not met
